The reported numbers originate from ChEMBL document CHEMBL1201862.

tested on: T47D; assay: NCI tumour cell line growth inhibition, 48 h
The source made the active and inactive calls. No stated cut-off is given here; in the data, active = GI50 up to about 1.1 µM and inactive = higher.
Provide the reported GI50 of each item.

Quick one: GI50 for `C[C@H](CCC(=O)NCCS(=O)(=O)O)[C@H]1CC[C@H]2[C@@H]3CC[C@@H]4C[C@H](O)CC[C@]4(C)[C@H]3CC[C@]12C` ?
> 100 µM (inactive)

And then C1=C(c2ccccc2)Nc2nnnn2C1c1ccccc1 (centres undefined) , what is it?
47.1 µM (inactive)

And then `O=c1c2ccc(Cl)cc2oc2c(CNc3ccc(S(=O)(=O)Nc4ncccn4)cc3)cccc12` , what is it?
> 100 µM (inactive)

And then `CCCCCc1cccc(=O)o1` , what is it?
> 100 µM (inactive)
